Hey, just so you know, these numbers are from paper PMC7397155.

- System: MDA-MB-231 cancer cells
- methodSummary: MTT cell viability assay, MDA-MB-231 breast cancer cells
- Format: cell-based, human
- runParameters: Homo sapiens, MDA-MB-231, 48 h, RB and R110 GUMBOS and parent dyes, 48 h incubation
pIC50: −log10 of the molar value.
In this section, each of the compounds is paired with its reported pIC50.

| compound | pIC50 |
| --- | --- |
| N=c1ccc2c(-c3ccccc3C(=O)O)c3ccc(N)cc3oc-2c1 [[R110][Cl], rhodamine 110 chloride, reference compound] | 3.11 |
| CCN(CC)c1ccc2c(-c3ccccc3C(=O)O)c3ccc(=[N+](CC)CC)cc-3oc2c1 [[RB][Cl], Rhodamine B chloride, reference compound] | 3.54 |

* * *

In this section, each of the molecules is paired with its reported Log Kow.
- methodSummary: Octanol buffer partition coefficient
- Assay type: physicochemical
- runParameters: 1-octanol / pH 7.4 phosphate-citric acid buffer, 48 h stirring
- Experimental: Into a 20 mL vial, 1-Octanol is mixed with a pH 7.4 phosphate-citric acid buffer and stirred overnight. The two layers were separated and then a calibration curve was generated for each compound in 1-octanol using various concentrations. […] Subsequently, absorbance in the octanol layer was measured and the concentration (Co) calculated using the calibration curves. […] The octanol–water partition coefficient was then calculated using the equation Kow = […]/Cw.
measurementLabel: Log Kow

| molecule | valueMeasured |
| --- | --- |
| N=c1ccc2c(-c3ccccc3C(=O)O)c3ccc(N)cc3oc-2c1 [[R110][Cl], rhodamine 110 chloride, reference compound] | 0.22 |
| COC(=O)c1ccccc1-c1c2ccc(N)cc2[o+]c2cc(N)ccc12.O=S(=O)([N-]S(=O)(=O)C(F)(F)C(F)(F)F)C(F)(F)C(F)(F)F [[R123][BETI]] | 1.1 |
| COC(=O)c1ccccc1-c1c2ccc(=[NH2+])cc-2oc2cc(N)ccc12.c1ccc([B-](c2ccccc2)(c2ccccc2)c2ccccc2)cc1 [[R123][TPB]] | 0.8 |
| CCN(CC)c1ccc2c(-c3ccccc3C(=O)O)c3ccc(=[N+](CC)CC)cc-3oc2c1.c1ccc([B-](c2ccccc2)(c2ccccc2)c2ccccc2)cc1 [[RB][TPB]] | 1.6 |
| CCN(CC)c1ccc2c(-c3ccccc3C(=O)O)c3ccc(=[N+](CC)CC)cc-3oc2c1.O=S(=O)([N-]S(=O)(=O)C(F)(F)C(F)(F)F)C(F)(F)C(F)(F)F [[RB][BETI]] | 1.25 |
| CCN(CC)c1ccc2c(-c3ccccc3C(=O)O)c3ccc(=[N+](CC)CC)cc-3oc2c1 [[RB][Cl], Rhodamine B chloride, reference compound] | 1.1 |
| COC(=O)c1ccccc1-c1c2ccc(=N)cc-2oc2cc(N)ccc12 [[R123][Cl], rhodamine 123, reference compound] | 0.25 |

* * *

- Tested on: MiaPaca cancer cells
- methodSummary: MTT cell viability assay, MiaPaca pancreatic cancer cells
- Design: species or system human
- runParameters: Homo sapiens, MIA PaCa-2, R123- and SNAFR-5-based nanoGUMBOS and parent dyes, 48 h incubation
- Method: Hormone-independent breast adenocarcinoma (MDA-MB-231), hormone-dependent breast adenocarcinoma (MCF7), human pancreatic carcinoma (Mia-Paca), and normal human fibroblast cell lines were purchased from American […] Culture Collection (ATCC, Manassas, VA, USA). […] A 96 well plate was seeded with 5000 cells/well and incubated for 24 h to allow attachment. […] The absorbance of the formazan was then measured at 570 nm using a microplate spectrophotometer. […] The IC50 was calculated using the formula: […]
pIC50: −log10 of the molar value.

| compound | pIC50 |
| --- | --- |
| COC(=O)c1ccccc1-c1c2ccc(=N)cc-2oc2cc(N)ccc12 [[R123][Cl], rhodamine 123, reference compound] | 5.51 |
